- Tested on: SMN2 mRNA
- METHOD SUMMARY: Splicing RT-qPCR gene panel, SMN2 canonical junction (CJ) mRNA
- Format: cell-based
- REPORTED CONDITIONS: Homo sapiens; Table 8; larger gene panel, decrease in CJ mRNA levels
# IC50 per entry

# MOLECULE, IC50
measured = [
    ("Cn1cc2cc(-c3cc4cn([C@H]5CCNC[C@H]5F)nc4s3)cc(F)c2n1", "< 100 nM"),
    ("Cc1cn2cc(-n3cc4cc(C5CCNCC5)sc4n3)cc(C)c2n1", "< 100 nM"),
]

Reported IC50, molecule "Cc1cn2cc(-c3nc4sc(C5CCNCC5)cc4s3)nc(C)c2n1" : ____ < 100 nM

Reported IC50, molecule "Cc1nc2cc(O)c(-c3nc4cn(C5CCNCC5)nc4s3)cc2o1" : ____ < 100 nM

Reported IC50, molecule "CN1CCC(n2cc3cc(-c4cc(F)c5nn(C)cc5c4)sc3n2)CC1" : ____ < 100 nM

Reported IC50, molecule "Cn1cc2c(F)cc(-n3cc4sc(C5CCNCC5)cc4n3)cc2n1" : ____ > 10000 nM

Reported IC50, molecule CC1CN(c2cc3sc(-c4cc(F)c5nn(C)cc5c4)nc3s2)CCN1C (centres unmarked) : ____ 100 to 1000 nM

Reported IC50, molecule Cn1cc2cc(-c3nc4sc(N5CCC56CCCNC6)cc4s3)cc(F)c2n1 (centres unmarked) : ____ 1000 to 10000 nM

Reported IC50, molecule "Cc1cn2nc(-c3nc4sc(C5CNC5)cc4s3)cc(C)c2n1" : ____ 100 to 1000 nM

* * *

- System: K562 (human chronic myelogenous leukemia) cells
- METHOD SUMMARY: Cell viability, Cell Titer Glo 2.0 assay, K562 cells
- Assay type: cell-based
- REPORTED CONDITIONS: 72 hours
pIC50: −log10 of the molar value.
# pIC50 per entry

Reference set (3 entries):
# COMPOUND, MEASUREMENT LABEL, RESULT
records = [
    ("Cc1cn2cc(-n3cc4cc(C5CCNCC5)sc4n3)ncc2n1 [Compound 158]", "pIC50", "6.00 to 7.00"),
    ("Cn1cc2cc(-c3cc4cn(C5CNC5)nc4s3)cc(F)c2n1 [Compound 184]", "pIC50", "5.00 to 6.00"),
    ("Cc1cn2nc(-c3cc4cn([C@H]5CCNC[C@@H]5F)nc4s3)cc(C)c2n1 (mixture of isomers) [Compound 212]", "pIC50", "5.00 to 6.00"),
]

Reported pIC50, compound Cn1cc2cc(-c3cc4cn(C5CCNCC5)nc4s3)cc(F)c2n1 [Compound 122] : ____ > 7.00

* * *

- System: SMN2 mRNA
- METHOD SUMMARY: Splicing RT-qPCR gene panel, SMN2 canonical junction (CJ) mRNA
- Type: cell-based
- REPORTED CONDITIONS: Homo sapiens; Table 8; larger gene panel, decrease in CJ mRNA levels
pIC50: −log10 of the molar value. Structures can show the parent of a compound that is named as a salt.
# pIC50 per entry

# MOLECULE, pIC50
rows = [
    ("Cn1cc2ccc(-c3nc4sc(C5CCNCC5)cc4s3)cc2n1 [Compound 127, hydrochloride]", "5.00 to 6.00"),
    ("Cc1cn2nc(-n3cc4cc(C5CCNCC5)sc4n3)cc(C)c2n1", "> 7.00"),
    ("Cc1cn2nc(-n3cc4cc(C5CCNCC5)sc4n3)cc2c(C)n1", "5.00 to 6.00"),
    ("Cn1cc2cc(-n3cc4nc(C5CCNCC5)sc4n3)cc(F)c2n1", "5.00 to 6.00"),
]

Item "CN1CC2(C1)CN(c1cc3sc(-c4cc(F)c5nn(C)cc5c4)nc3s1)C2" with SMN2 mRNA - pIC50? > 7.00

* * *

- System: MYB mRNA
- METHOD SUMMARY: Splicing RT-qPCR assay, MYB canonical (CJ) and alternative (AJ) junction mRNA
- Type: cell-based
- REPORTED CONDITIONS: Homo sapiens; Table 7; IC50 = 50% response in CJ mRNA decrease; RT-qPCR, A673 or K562 cells, 24 hours treatment; read-out: MYB CJ
- Experimental: Compounds described herein were used to modulate RNA transcript abundance in cells. The expression of a target mRNA was measured by detecting the formation of an exon-exon junction in the canonical transcript (CJ). A compound mediated exon-inclusion event was detected by observing an increase in formation of a new junction with an alternative exon (AJ). Real-time qPCR assays were used to detect these splicing switches and interrogate the potency of various compounds towards different target genes. […]
pIC50: −log10 of the molar value. Counter-ions that a name gives are not always drawn.
MEASUREMENT LABEL: pIC50

Reference set (6 entries):
# MOLECULE, TARGET OR SYSTEM, pIC50
data = [
    ("Cn1cc2ccc(-c3nc4sc(C5CCNCC5)cc4s3)cc2n1 [Compound 127, hydrochloride]", "MYB mRNA", "5.00 to 6.00"),
    ("Cc1cn2cc(-c3cc4cn(C5CCNCC5)nc4s3)cc(F)c2n1 [Compound 229]", "MYB mRNA", "6.00 to 7.00"),
    ("Cc1cn2cc(-c3cc4cn(C5CCNCC5)nc4s3)cc(Cl)c2n1 [Compound 226]", "MYB mRNA", "6.00 to 7.00"),
    ("Cn1cc2cc(-c3cc4cn([C@@H]5CCNC5)nc4s3)cc(F)c2n1 [Compound 160, hydrochloride]", "MYB mRNA", "5.00 to 6.00"),
    ("CC1CN(c2cc3sc(-c4cc(F)c5nn(C)cc5c4)nc3s2)CCN1 (stereo not drawn) [Compound 135]", "MYB mRNA", "6.00 to 7.00"),
    ("Cc1cn2cc(-c3cc4cn(C5CCNCC5)nc4s3)nc(C)c2n1 [Compound 228]", "MYB mRNA", "5.00 to 6.00"),
]

Reported pIC50, molecule Cn1cc2cc(-c3cc4cn([C@@H]5CCNC[C@@H]5F)nc4s3)cc(F)c2n1 [Compound 183] : ____ 5.00 to 6.00

* * *

- Tested on: K562 (human chronic myelogenous leukemia) cells
- METHOD SUMMARY: Cell viability, Cell Titer Glo 2.0 assay, K562 cells
- Assay type: cell-based
- REPORTED CONDITIONS: 72 hours
pIC50: −log10 of the molar value. Where a name gives a salt, the structure may show the parent alone.
MEASUREMENT LABEL: pIC50

Reference set (3 entries):
# MOLECULE, RESULT
records = [
    ("Cc1cn2cc(-c3cc4cn(C5CCNCC5)nc4s3)ncc2n1", "5.00 to 6.00"),
    ("Cc1cn2cc(-n3cc4cc(C5CCNCC5)sc4n3)cc(Cl)c2n1", "6.00 to 7.00"),
    ("Cc1nc2c(F)cc(-n3cc4sc(C5CCNCC5)cc4n3)cc2s1", "5.00 to 6.00"),
]

Reported pIC50, molecule Cn1cc2cc(-c3cc4cn([C@@H]5CCNC5)nc4s3)cc(F)c2n1 [Compound 160, hydrochloride] : ____ 5.00 to 6.00

Reported pIC50, molecule "Cn1cc2cc(-n3cc4cc(C5CCNCC5)sc4n3)c(O)cc2n1" : ____ 5.00 to 6.00

Reported pIC50, molecule "Cn1cc2cc(-c3nc4cn(C5CCNCC5)nc4s3)c(O)cc2n1" : ____ 5.00 to 6.00

Reported pIC50, molecule "Cc1cn2cc(-c3cc4cn(C5CCNCC5)nc4s3)nc(C)c2n1" : ____ 5.00 to 6.00

* * *

- Test system: MYB mRNA
- METHOD SUMMARY: Splicing RT-qPCR assay, MYB canonical (CJ) and alternative (AJ) junction mRNA
- Type: cell-based
- REPORTED CONDITIONS: Homo sapiens; Table 7; IC50 = 50% response in CJ mRNA decrease; RT-qPCR, A673 or K562 cells, 24 hours treatment; read-out: MYB CJ
pIC50: −log10 of the molar value. Counter-ions that a name gives are not always drawn.
# pIC50 per entry

# MOLECULE, RESULT
data = [
    ("Cc1cc(-c2cc3cn([C@@H]4CCNC[C@@H]4F)nc3s2)cc2cn(C)nc12 (single isomer, unassigned)", "6.00 to 7.00"),
    ("Cc1cn2nc(-n3cc4sc(C5CCNCC5)cc4n3)cc(C)c2n1", "6.00 to 7.00"),
    ("Cn1cc2cc(-n3cc4sc(C5CCNCC5)cc4n3)cc(F)c2n1", "5.00 to 6.00"),
]

Reported pIC50, molecule Cn1cc2cc(-c3nc4sc(N5CCC56CCCNC6)cc4s3)cc(F)c2n1 (centres unmarked) : ____ < 5.00

Reported pIC50, molecule "Cc1cn2cc(-c3nc4sc(C5CCNCC5)cc4s3)cc(Cl)c2n1" : ____ > 7.00

Reported pIC50, molecule Cc1cn2nc(-c3cc4cn(C5CCNCC5)nc4s3)c(O)c2c(C)n1 [Compound 213, hydrochloride] : ____ < 5.00

Reported pIC50, molecule Cc1cc(-c2cc3cn([C@H]4CCNC[C@H]4F)nc3s2)cc2cn(C)nc12 (single isomer, unassigned) : ____ 5.00 to 6.00

Reported pIC50, molecule CC1CN(c2cc3sc(-c4cc(F)c5nn(C)cc5c4)nc3s2)CCN1C (centres unmarked) : ____ 5.00 to 6.00
